Please respond with reported Lipoprotein level for every item in the list.
# System: Monkey
# protocol: Evaluated for serum lipoprotein HDL levels in the 14 day treated rhesus monkey at dose (10 mg/kg/day, ig) over a 2-week period
# Type: functional, Cercopithecidae
# Design: reference not given here
One number for each entry, in %.

Answered examples (3):
# compound, Lipoprotein level [%]
records = [
    ("C[C@H](C(O)CCC(C)(C)C)C1CCC2C3CC=C4CC(O)CCC4(C)C3CCC21C (some centres undefined)", 66),
    ("C[C@H](C(O)CCC(C)(C)Cl)C1CCC2C3CC=C4CC(O)CCC4(C)C3CCC21C (some centres undefined)", 70),
    ("C[C@H](C(O)CCC1CC1)C1CCC2C3CC=C4CC(O)CCC4(C)C3CCC21C (some centres undefined)", 68),
]

Could you now look at the following compound, please?
Tell us which Lipoprotein level value is on record for C[C@H](C(O)CCC(C)(C)F)C1CCC2C3CC=C4CC(O)CCC4(C)C3CCC21C (some centres undefined) 61

----------
# Species: Rattus norvegicus
# protocol: Minimum effective dose necessary to produce >=25% decrease of elevated liver HMG CoA reductage levels
# Type: functional
# condition info: read-out: MED
parameter measured: minimal effective dose (mg/kg)
Numbers only, in mg/kg.

Quick request: minimal effective dose for each listed item, please.
1. C[C@H](C(O)CCC(C)(C)Cl)C1CCC2C3CC=C4CC(O)CCC4(C)C3CCC21C (some centres undefined)
2. C[C@H](C(O)CCC1CC1)C1CCC2C3CC=C4CC(O)CCC4(C)C3CCC21C (some centres undefined)

[0.2, 0.5]

Tell us which minimal effective dose value is on record for C[C@H](C(O)CCC(C)(C)F)C1CCC2C3CC=C4CC(O)CCC4(C)C3CCC21C (some centres undefined) 0.5
